molecular target: serotonin reuptake (Mus musculus); construct: they potentiate 5-HTP induced behaviour in mice; from tissue; host or cells: living mice (in vivo behavioural model); experiment: Potentiation of 5-HTP induced behaviour in mice; details: po, read-out: in vivo activity 5-HT reuptake 5-HTP** ED50 mg/kg po
Sequence (Q60857 whole entry): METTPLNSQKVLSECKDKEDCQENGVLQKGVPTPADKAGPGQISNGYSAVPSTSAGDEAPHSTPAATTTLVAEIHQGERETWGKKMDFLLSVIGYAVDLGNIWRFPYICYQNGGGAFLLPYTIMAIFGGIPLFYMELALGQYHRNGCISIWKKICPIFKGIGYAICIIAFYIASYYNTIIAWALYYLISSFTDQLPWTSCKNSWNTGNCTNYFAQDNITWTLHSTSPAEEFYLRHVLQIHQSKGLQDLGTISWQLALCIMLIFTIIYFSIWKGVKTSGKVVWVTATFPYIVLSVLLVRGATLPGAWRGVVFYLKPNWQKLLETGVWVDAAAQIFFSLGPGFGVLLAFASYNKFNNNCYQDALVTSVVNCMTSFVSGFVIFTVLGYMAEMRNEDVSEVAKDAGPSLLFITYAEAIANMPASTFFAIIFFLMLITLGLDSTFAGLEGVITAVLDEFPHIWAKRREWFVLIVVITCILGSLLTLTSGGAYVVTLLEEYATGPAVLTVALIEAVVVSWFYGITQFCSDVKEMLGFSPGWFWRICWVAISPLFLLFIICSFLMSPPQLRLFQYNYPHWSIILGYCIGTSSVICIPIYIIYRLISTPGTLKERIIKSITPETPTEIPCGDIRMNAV
Label 1 when ED50 is strictly below 20 mg/kg; otherwise label -1.

Past entries and their recorded results:
In [3]: df
Out[3]:
                                 smiles_str                      target_entity  assigned_category
0  Fc1cccc2[nH]cc(CCCN3CCN(c4cccc5c4OCCO5)CC3)c12  serotonin reuptake (Mus musculus)                 -1
1  c1cc2c(c(N3CCN(CCCc4c[nH]c5ccccc45)CC3)c1)OCCO2  serotonin reuptake (Mus musculus)                 -1
2  Fc1ccc2[nH]cc(CCCN3CCN(c4cccc5c4OCCO5)CC3)c2c1  serotonin reuptake (Mus musculus)                  1
3  Clc1ccc2c(CCCN3CCN(c4cccc5c4OCCO5)CC3)c[nH]c2c1  serotonin reuptake (Mus musculus)                 -1

State whether 20 mg/kg exceeds ED50 recorded for Fc1cccc2c(CCCN3CCN(c4cccc5c4OCCO5)CC3)c[nH]c12 .
-1

* * *

target: dopamine D2 receptors (Mus musculus, UniProt P61168); construct: antagonize apomorphine-induced climbing behaviour in mice; from tissue; host or cells: living mice (in vivo behavioural model); experiment: Antagonism of apomorphine-induced climbing behaviour in mice (APO-climb); conditions: po, read-out: in vivo activity Dopamine-D2 APO-climb* ED50 mg/kg po
Sequence (P61168 whole entry): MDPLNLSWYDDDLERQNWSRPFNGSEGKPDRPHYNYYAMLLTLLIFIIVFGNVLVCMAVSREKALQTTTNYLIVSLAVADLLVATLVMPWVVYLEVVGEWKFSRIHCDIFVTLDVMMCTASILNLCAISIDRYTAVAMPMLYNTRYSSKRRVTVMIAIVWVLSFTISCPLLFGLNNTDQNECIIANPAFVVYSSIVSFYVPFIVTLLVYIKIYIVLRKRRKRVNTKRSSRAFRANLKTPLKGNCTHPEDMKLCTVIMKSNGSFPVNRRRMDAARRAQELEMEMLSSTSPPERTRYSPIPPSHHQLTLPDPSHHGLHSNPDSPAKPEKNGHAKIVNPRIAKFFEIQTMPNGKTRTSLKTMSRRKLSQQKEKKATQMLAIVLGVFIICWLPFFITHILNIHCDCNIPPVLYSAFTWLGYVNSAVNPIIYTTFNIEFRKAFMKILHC
assay metric: ED50 (mg/kg)
Reply numerically in mg/kg, unit not repeated.

Look over these answered cases.
>>> print(df.to_string())
                                 smiles_str                             target_entity  assay_metric  unit_of_measurement  endpoint_value
0  Clc1ccc2c(CCCN3CCN(c4cccc5c4OCCO5)CC3)c[nH]c2c1  dopamine D2 receptors (Mus musculus, UniProt P61168)          ED50                mg/kg             4.5
1  Fc1ccc2c(CCCN3CCN(c4cccc5c4OCCO5)CC3)c[nH]c2c1  dopamine D2 receptors (Mus musculus, UniProt P61168)          ED50                mg/kg               9
2  c1cc2c(c(N3CCN(CCCc4c[nH]c5ccccc45)CC3)c1)OCCO2  dopamine D2 receptors (Mus musculus, UniProt P61168)          ED50                mg/kg              10

Please turn your attention to the following entry.
Reported ED50 for Fc1cccc2[nH]cc(CCCN3CCN(c4cccc5c4OCCO5)CC3)c12 : what is it?
13

* * *

Biological target: serotonin reuptake sites (Rattus norvegicus)
Sequence (P31652 whole entry): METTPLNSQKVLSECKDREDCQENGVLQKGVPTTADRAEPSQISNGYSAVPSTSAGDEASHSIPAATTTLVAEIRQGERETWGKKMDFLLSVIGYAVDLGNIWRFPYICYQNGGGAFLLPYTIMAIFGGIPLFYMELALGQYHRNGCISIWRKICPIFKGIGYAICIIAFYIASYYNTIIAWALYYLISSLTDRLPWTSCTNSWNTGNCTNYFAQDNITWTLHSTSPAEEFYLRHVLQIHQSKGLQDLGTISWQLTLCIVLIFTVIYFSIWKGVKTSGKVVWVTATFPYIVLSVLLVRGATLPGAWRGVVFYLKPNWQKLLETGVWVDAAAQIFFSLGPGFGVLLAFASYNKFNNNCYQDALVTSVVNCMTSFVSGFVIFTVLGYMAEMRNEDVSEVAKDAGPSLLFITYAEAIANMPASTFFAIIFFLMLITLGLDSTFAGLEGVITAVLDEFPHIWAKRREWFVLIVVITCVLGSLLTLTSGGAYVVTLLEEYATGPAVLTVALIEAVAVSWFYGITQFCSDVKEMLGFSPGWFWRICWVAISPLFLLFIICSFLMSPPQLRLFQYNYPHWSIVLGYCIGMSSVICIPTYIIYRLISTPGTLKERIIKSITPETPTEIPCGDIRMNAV
Assay: In vitro affinity for serotonin reuptake sites ([3H]-paroxetine binding assay, Habert et al.)
Conditions: average values from three independent experiments; read-out: in vitro affinity 5-HT reuptake binding Ki
Text: In vitro affinity for serotonin reuptake sites
assay metric: pKi
Interpret pKi as the negative base-10 log of the concentration measured in mol/L.

Look over these answered cases.
>>> print(df.to_string())
                                 smiles_str  endpoint_value
0  c1cc2c(c(N3CCN(CCCc4c[nH]c5ccccc45)CC3)c1)OCCO2            9.40
1  Clc1ccc2c(CCCN3CCN(c4cccc5c4OCCO5)CC3)c[nH]c2c1            8.70
2  COc1ccc2[nH]cc(CCCN3CCN(c4cccc5c4OCCO5)CC3)c2c1            7.85
3  Fc1ccc2c(CCCN3CCN(c4cccc5c4OCCO5)CC3)c[nH]c2c1            8.80
4  Clc1cccc2[nH]cc(CCCN3CCN(c4cccc5c4OCCO5)CC3)c12            8.85

Reported pKi for c1cc2c(c(N3CCN(CCCc4c[nH]c5ccccc45)CC3)c1)CCCO2 : what is it?
8.96

Reported pKi for Fc1cccc2c(CCCN3CCN(c4cccc5c4OCCO5)CC3)c[nH]c12 : what is it?
9.22

Reported pKi for c1cc2c(c(N3CCN(CCCCCc4c[nH]c5ccccc45)CC3)c1)OCCO2 : what is it?
7.43

Reported pKi for Fc1ccc2[nH]cc(CCCN3CCN(c4cccc5c4OCCO5)CC3)c2c1 : what is it?
9.52

Reported pKi for Cc1cccc2c(CCCN3CCN(c4cccc5c4OCCO5)CC3)c[nH]c12 : what is it?
7.92
